- SYSTEM: T1, human EGFRvIII-hFc protein (human, UniProt P00533 25-645)
- T1 construct: extracellular domain; made in HEK293 cells, purified on protein A; also called immunogen A; hFc-tagged EGFRvIII protein; not shown: human IgG Fc fragment (hFc) of the pCpC vector
- ASSAY_PROCEDURE: ELISA, coated EGFRvIII-hFc, antibody 0.1 nM
- Method: The purified immunogen A (EGFRvIII-hFc) obtained in example 1 (for the preparation method, see step (I) in example 1) is diluted with PBS to a final concentration of 1.0 μg/mL, and then added to a 96-well ELISA plate at 100 μl/well. The plate is sealed with a plastic film and incubated at 4° C. overnight. […] A450 nm value is read using an ELISA plate reader (SpectraMax 384plus, purchased from Molecular Device), and the results are shown in FIG. 6 and table 10.
OUTCOME_MEASURE: OD450 nm

Murine anti-7E5 (antibody, V domains shown, murine hybridoma antibody; also called 7E5-2A9; murine anti-7E5-2) VH: EIQLQQSGPELVKPGASVKVSCKASGYSFTDYNMYWVKQSHGKSLEWIGYVDPSNGGTNYNQKFKGKATLTVDKSSSTAFMHLNSLTSEDSAVYYCARGFFDYWGQGTTLTVSS VL: DIVMTQSPSSLTVTAGEKVTMSCKSSQSLLNSGNQKNYLTWYQQKPGQPPKLLIYWASNRESGVPDRFTGSGSGKDFTLTISSVQAEDLAVYYCQNDYRYPVTFGAGTKLELK : 1.68
Murine anti-59G3 (antibody, V domains shown, murine hybridoma antibody; also called 59G3F12) VH: DVQLQESGPGLVKPSQSLSLTCSVTGYSITSGYYWHWIRQFPENKLEWMGYISYDGSNIYNPSLKNRISITRDTSKNQFFLKLNSVTTEDTATYYCAINSDYALDYWGQGTSVTVSS VL: QIVLTQSPAIMSASPGEKVTMTCSASSSVSYMYWYQQKPGSSPRLLIYDTSNLASGVPVRFSGSGSGTSYSLTISRMEAEDAATYYCQQWSSYSLTFGAGTKLELK : 0.49

# evaluate next
Would you mind telling me what OD450 nm value was observed for Murine anti-75G7 (antibody, V domains shown, murine hybridoma antibody; also called 75G7C6) VH: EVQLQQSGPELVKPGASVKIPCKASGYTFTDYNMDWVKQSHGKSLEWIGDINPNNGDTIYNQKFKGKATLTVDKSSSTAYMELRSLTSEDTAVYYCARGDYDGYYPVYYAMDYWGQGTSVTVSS VL: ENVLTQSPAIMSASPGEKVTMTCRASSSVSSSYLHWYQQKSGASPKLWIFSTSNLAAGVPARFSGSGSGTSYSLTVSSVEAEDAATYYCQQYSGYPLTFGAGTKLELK ?
0.07
